# target_or_test_system: CaV2.2 (Homo sapiens, UniProt Q00975)
# Construct: expressed in transfected cells; host or cells: HEK293
# Sequence (Q00975 whole entry): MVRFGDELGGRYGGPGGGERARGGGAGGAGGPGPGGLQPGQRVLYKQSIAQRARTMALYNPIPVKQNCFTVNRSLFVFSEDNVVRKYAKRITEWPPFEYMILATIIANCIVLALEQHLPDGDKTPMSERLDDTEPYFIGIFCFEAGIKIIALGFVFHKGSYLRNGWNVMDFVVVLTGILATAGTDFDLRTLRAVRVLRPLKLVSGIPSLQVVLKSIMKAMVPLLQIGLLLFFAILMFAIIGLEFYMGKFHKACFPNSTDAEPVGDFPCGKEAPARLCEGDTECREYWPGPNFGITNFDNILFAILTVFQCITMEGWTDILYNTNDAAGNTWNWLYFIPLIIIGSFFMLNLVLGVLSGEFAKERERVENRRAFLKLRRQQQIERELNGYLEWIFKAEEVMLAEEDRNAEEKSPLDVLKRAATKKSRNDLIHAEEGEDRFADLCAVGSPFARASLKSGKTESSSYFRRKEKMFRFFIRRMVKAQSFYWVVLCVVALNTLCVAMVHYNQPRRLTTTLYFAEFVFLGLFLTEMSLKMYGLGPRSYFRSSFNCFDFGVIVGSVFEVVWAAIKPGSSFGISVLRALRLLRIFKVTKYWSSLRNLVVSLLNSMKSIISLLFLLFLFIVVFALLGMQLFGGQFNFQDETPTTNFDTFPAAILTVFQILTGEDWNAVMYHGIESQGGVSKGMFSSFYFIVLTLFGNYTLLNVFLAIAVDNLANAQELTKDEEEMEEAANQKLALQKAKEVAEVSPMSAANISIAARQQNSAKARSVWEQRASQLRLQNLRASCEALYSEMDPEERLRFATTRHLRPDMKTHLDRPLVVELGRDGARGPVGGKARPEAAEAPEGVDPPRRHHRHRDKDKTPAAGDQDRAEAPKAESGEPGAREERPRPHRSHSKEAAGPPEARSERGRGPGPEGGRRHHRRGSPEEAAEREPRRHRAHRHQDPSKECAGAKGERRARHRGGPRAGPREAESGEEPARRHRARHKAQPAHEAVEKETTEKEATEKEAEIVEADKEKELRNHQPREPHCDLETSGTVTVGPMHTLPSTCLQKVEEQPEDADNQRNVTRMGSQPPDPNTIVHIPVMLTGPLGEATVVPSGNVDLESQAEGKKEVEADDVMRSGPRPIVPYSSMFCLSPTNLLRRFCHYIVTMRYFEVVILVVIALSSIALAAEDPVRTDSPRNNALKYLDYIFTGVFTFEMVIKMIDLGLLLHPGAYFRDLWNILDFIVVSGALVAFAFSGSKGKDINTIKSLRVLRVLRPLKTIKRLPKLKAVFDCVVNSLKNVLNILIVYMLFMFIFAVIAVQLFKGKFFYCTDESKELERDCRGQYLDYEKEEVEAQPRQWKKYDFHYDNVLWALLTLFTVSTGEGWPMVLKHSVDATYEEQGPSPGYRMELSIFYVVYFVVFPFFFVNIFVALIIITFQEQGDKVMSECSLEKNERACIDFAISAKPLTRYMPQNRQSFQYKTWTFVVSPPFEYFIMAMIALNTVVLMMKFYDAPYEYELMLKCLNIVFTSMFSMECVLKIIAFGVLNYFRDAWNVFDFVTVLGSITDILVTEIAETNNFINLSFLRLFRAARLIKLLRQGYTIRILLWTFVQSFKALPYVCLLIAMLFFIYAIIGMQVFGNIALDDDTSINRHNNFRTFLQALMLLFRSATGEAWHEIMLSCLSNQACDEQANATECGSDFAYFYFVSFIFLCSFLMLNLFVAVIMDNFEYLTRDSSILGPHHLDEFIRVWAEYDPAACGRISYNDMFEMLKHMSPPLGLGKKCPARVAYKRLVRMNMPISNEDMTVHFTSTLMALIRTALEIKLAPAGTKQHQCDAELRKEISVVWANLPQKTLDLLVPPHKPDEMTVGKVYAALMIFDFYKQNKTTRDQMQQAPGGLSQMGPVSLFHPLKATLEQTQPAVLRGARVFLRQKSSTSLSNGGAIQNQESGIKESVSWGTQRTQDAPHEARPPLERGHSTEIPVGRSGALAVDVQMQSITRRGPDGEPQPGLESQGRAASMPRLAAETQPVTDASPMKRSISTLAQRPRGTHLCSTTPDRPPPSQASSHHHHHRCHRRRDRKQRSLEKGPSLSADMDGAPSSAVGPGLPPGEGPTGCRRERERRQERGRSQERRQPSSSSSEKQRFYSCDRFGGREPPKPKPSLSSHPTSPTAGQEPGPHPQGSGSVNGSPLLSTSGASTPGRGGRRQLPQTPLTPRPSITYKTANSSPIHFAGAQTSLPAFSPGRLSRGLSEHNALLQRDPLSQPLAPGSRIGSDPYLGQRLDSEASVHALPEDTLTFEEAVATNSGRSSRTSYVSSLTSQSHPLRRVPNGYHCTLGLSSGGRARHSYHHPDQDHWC
# Sequence (P54284 whole entry partner): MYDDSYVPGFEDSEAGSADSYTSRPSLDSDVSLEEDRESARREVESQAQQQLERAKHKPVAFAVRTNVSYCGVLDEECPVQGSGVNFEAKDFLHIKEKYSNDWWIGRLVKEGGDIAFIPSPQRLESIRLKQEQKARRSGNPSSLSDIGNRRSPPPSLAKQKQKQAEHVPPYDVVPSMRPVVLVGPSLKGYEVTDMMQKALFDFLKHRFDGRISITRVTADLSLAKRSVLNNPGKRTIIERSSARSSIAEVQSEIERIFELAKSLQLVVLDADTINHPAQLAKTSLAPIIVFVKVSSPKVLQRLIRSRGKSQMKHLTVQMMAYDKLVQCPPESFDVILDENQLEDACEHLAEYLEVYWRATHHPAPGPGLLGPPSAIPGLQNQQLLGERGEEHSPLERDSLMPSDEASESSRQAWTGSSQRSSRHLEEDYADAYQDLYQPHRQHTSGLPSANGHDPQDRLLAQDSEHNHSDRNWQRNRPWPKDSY
# Sequence (P54289 25-946 partner limits assumed): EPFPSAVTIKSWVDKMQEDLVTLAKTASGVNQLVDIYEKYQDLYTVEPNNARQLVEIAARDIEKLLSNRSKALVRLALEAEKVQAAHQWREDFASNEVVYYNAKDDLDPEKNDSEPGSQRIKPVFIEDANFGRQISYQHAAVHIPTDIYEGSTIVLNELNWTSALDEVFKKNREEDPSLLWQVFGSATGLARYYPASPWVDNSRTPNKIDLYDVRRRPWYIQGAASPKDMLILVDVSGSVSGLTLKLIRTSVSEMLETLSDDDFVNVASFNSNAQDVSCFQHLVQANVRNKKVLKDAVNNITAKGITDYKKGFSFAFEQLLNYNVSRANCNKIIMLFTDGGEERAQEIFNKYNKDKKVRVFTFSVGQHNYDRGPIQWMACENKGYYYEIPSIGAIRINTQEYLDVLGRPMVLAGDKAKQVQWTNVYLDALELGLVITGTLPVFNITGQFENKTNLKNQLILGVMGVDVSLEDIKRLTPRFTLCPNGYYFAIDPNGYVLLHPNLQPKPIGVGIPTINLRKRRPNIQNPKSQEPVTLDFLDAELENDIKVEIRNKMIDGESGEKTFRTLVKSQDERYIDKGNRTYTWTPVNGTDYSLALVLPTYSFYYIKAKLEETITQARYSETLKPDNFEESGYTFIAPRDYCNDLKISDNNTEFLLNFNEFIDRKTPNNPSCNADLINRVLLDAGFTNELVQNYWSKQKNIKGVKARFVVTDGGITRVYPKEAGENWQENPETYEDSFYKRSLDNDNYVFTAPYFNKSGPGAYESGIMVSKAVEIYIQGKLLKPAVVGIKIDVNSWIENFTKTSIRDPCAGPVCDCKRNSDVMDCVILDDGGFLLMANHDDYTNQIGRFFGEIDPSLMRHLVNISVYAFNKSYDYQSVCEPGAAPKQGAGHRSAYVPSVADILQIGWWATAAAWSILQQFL
# Sequence (P54289 947-1103 partner limits assumed): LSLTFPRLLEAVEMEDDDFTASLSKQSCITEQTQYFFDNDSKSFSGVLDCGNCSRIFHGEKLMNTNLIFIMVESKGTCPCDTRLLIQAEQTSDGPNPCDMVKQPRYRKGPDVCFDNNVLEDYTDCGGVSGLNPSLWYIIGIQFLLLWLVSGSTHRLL
# procedure_summary: VIPR optical membrane potential assay with electrical stimulation
# Format: cell-based
# stated_conditions: Table 3, biological assay data; read-out: IC50
pIC50: −log10 of the molar value.
Items are presented alongside their recorded pIC50.

# example entries with known answers
CNC(=O)c1oc2ccc(S(=O)(=O)N3CC(C)CC(C)C3)cc2c1C (stereo not shown)    > 5.30
CCNC(=O)c1oc2ccc(S(=O)(=O)N3CCCCCC3)cc2c1C    4.70 to 5.30
CCN(CC)S(=O)(=O)c1ccc2oc(C(=O)NCc3ccc(C)cc3)c(C)c2c1    4.70 to 5.30

# context switch: different compound, same pIC50
Request: Looking for the measured pIC50 of `CCOC(=O)N1CCN(C(=O)c2[nH]c3ccc(S(=O)(=O)N4CCC(C)CC4)cc3c2C)CC1` , can you help?
Result: 4.70 to 5.30
